The reader will find reported melting point values listed item by item below.
measured.endpoint: melting point

[[record]]
compound = "NC(=O)c1ccc2c(c1)C(=O)c1ccccc1C2=O"
measured_endpoint = "melting point"
value_observed = "299 °C"

[[record]]
compound = "Nc1c(CC(=O)O)cccc1Oc1ccc(Cl)cc1Cl"
measured_endpoint = "melting point"
value_observed = "123 to 124 °C"

[[record]]
compound = "COc1ccc2c(C#N)c(-c3ncc(S(=O)(=O)NC(CF)CF)cn3)n(C3CCC3)c2n1"
measured_endpoint = "melting point"
value_observed = "229 to 230 °C"

[[record]]
compound = "C=C(CC)C(=O)c1ccc(OC(C)(C)C(=O)O)c(Cl)c1Cl"
measured_endpoint = "melting point"
value_observed = "88 to 89 °C"

[[record]]
compound = "COc1ccc(S(=O)(=O)NC(C)(C)C(=O)NO)cc1"
measured_endpoint = "melting point"
value_observed = "122 to 125 °C"

[[record]]
compound = "COc1c(C(C)(C)C)cc(C(=O)O)cc1C(C)(C)C"
measured_endpoint = "melting point"
value_observed = "192 to 195 °C"

[[record]]
compound = "CC(C)(C)OC(=O)N1CCN(c2nsc3ccccc23)CC1"
measured_endpoint = "melting point"
value_observed = "105 to 107 °C"

[[record]]
compound = "CCOC(=O)C=CCOc1ccc(C23CC4CC(CC(C4)C2)C3)cc1"
measured_endpoint = "melting point"
value_observed = "91 to 93 °C"

[[record]]
compound = "COc1cc2c(cc1OC)[C@@H]1CN(C)CC[C@@H]1N=C2c1ccc(NC(=O)c2ccccc2)cc1 (relative stereo)"
measured_endpoint = "melting point"
value_observed = "240 to 245 °C"

[[record]]
compound = "O=P1(O)Oc2c(Cl)cc(Cl)cc2-c2ccc(Cl)cc21"
measured_endpoint = "melting point"
value_observed = "260 °C"

[[record]]
compound = "CN(CCc1ccccn1)C(=O)CCSc1cc(C(C)(C)C)c(O)c(C(C)(C)C)c1"
measured_endpoint = "melting point"
value_observed = "82 to 84 °C"

[[record]]
compound = "Nc1cc2c(cc1N)C1CC2CN(C(=O)C(F)(F)F)C1"
measured_endpoint = "melting point"
value_observed = "129 to 131 °C"

[[record]]
compound = "CC(=O)OC1CC(OCc2ccccc2)C2COC1O2 (configuration not stated)"
measured_endpoint = "melting point"
value_observed = "85 to 87 °C"

[[record]]
compound = "CCC1=C(C)C(=O)NC1C (configuration not stated)"
measured_endpoint = "melting point"
value_observed = "83 °C"

[[record]]
compound = "N#Cc1cncc(I)c1Cl"
measured_endpoint = "melting point"
value_observed = "120 to 122 °C"

[[record]]
compound = "CCCCCCCCc1ccc(C(=O)C2CC2C(=O)O)cc1 (configuration not stated)"
measured_endpoint = "melting point"
value_observed = "45 to 47 °C"

[[record]]
compound = "CC(C)C(N)CCCCCCCCC(C)(C)C(=O)O (configuration not stated)"
measured_endpoint = "melting point"
value_observed = "156 to 159 °C"

[[record]]
compound = "CCOc1ccccc1O[C@@H](c1ccccc1)[C@@H](CO[Si](C)(C)C)OS(C)(=O)=O (racemic)"
measured_endpoint = "melting point"
value_observed = "80 to 82.5 °C"

[[record]]
compound = "Clc1nc(Cl)c2c(n1)CCCS2"
measured_endpoint = "melting point"
value_observed = "110 °C"

[[record]]
compound = "CC(Oc1ccc(F)cc1)C(=O)O (configuration not stated)"
measured_endpoint = "melting point"
value_observed = "113 to 115 °C"

[[record]]
compound = "CC(C)(C)OC(=O)c1cccc(NC(N)=O)c1"
measured_endpoint = "melting point"
value_observed = "230 to 232 °C"

[[record]]
compound = "CCCCn1nc(C)c(C(=O)O)c1Cc1ccc(-c2ccccc2S(=O)(=O)NC(=O)OC(C)(C)C)cc1"
measured_endpoint = "melting point"
value_observed = "92 to 96 °C"

